The measured values listed here are drawn from PubChem BioAssay.

assay: E. coli acrAB mutant growth effects, primary screen, E. coli filamentation inducers, strain DRC39, OD650, 48 h (AID 1179);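 also: screen aims at cell division blockers that make cells filament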; conditions: E. coli DRC39 delta-acrAB growth, higher = more signal, called active from +8 up or from −8 down
Activity calls are given as the source filed them.
The following compounds are shown together with reported z-score values.

Worked cases, answers included:
{"compound string": "[N-]=[N+]=NCc1ccccc1C[C@]1(C(=O)O)N=C(c2ccc(OCCCO)cc2)O[C@H]1c1ccccc1N=[N+]=[N-]", "z-score": "-0.0775 (inactive)"}
{"compound string": "CC(C)C[C@@H]1NC(=O)[C@H]2C[C@@H](C(=O)NCCCCCCN(C)C)[C@@H](c3ccc(O)cc3)N2C1=O", "z-score": "0.152 (inactive)"}
{"compound string": "CC(C)(C)OC(=O)CC[C@]1(C(=O)O)N=C(c2ccc(OCCCO)cc2)O[C@H]1c1ccccc1N=[N+]=[N-]", "z-score": "0.49 (inactive)"}
{"compound string": "COCCOC(=O)N1C(=O)[C@@]2(c3cc(C#CCCO)ccc31)[C@H](C(=O)N1CCN(c3ncccn3)CC1)[C@H]1C(=O)O[C@H](c3ccccc3)[C@H](c3ccccc3)N1[C@@H]2c1ccccc1OCCO", "z-score": "-0.776 (inactive)"}
{"compound string": "O=C1c2ccccc2[C@](Cc2ccccc2I)(C(=O)NC2CC2)[C@H](c2ccc(CO)cc2)N1C1CCCCC1", "z-score": "-0.585 (inactive)"}

Which z-score reading was recorded for the compound `COC(=O)[C@@]1(Cc2ccc(F)cc2)[C@@H]2[C@@H](CC(=O)[C@H]2CC(=O)C(=O)N(C)C)CN1C(=O)c1ccccc1` ?
-0.13 (inactive)

Which z-score value is on record for `COc1ccc(C(=O)Nc2cccc(CN3C(=O)[C@]4(O[C@H](CCO)[C@@H]([Si](C)(C)c5ccc(OC)cc5)[C@@H]4C)c4ccccc43)c2)cc1` ?
-0.903 (inactive)

---

The entries below are paired with their reported z-score.
test: inhibitors of hydroxyurea-induced Chk1 phosphorylation, primary screen, imaging, HeLa, phospho-Chk1 nuclear intensity (AID 1187); details: hydroxyurea-induced phospho-Chk1 immunofluorescence imaging, higher = more signal; also: test concentration not given here
Number, no unit, nothing else.

Worked set:
{"compound string": "O=C1c2ccccc2[C@@]2(Cc3ccccc3N(CC(F)(F)F)C2=O)[C@H](c2ccc(CO)cc2)N1Cc1ccccc1Cl", "value measured": -0.245}
{"compound string": "COc1ccc([Si](C)(C)[C@H]2[C@H](CCO)O[C@@]3(C(=O)N(Cc4ccc(N5C(=O)COc6ccccc65)cc4)c4ccccc43)[C@@H]2C)cc1", "value measured": -1.02}
{"compound string": "COCCOC(=O)N1C(=O)[C@@]2(c3ccccc31)[C@H](c1ccccc1OCCO)N1[C@H](c3ccccc3)[C@H](c3ccccc3)OC(=O)[C@H]1[C@@H]2C(=O)Nc1nc2ccccc2s1", "value measured": 0.122}
{"compound string": "COC(=O)[C@@]1(Cc2ccccc2)[C@H]2c3cc(C(=O)N4CCCC4)n(Cc4cccc5ccccc45)c3C[C@H]2CN1C(=O)c1ccccc1", "value measured": 0.243}
{"compound string": "COC(=O)c1c(CC[C@@H](CO)NC(=O)N[C@@H](C)Cn2cc(C3(O)CCCCC3)nn2)oc(C(C)=O)c1C(=O)OC", "value measured": 0.715}

Proceed to the following item.
Item under review: `C=CCOC(=O)[C@H]1[C@@H]2C(=O)O[C@@H](c3ccccc3)[C@@H](c3ccccc3)N2[C@@H](c2ccc(OCCOC(=O)[C@H]3C[C@H]4C(=O)N[C@@H](CC(C)C)C(=O)N4[C@H]3c3ccc(O)cc3)cc2)[C@]12C(=O)Nc1ccc(I)cc12` . Reported z-score?
0.198

---

Each entry below carries its recorded z-score.
assay: basal 3T3-L1 adipocyte mitochondrial potential changes, profiling panel, cell-based, JC-1 fluorescence, 3T3-L1 adipocytes, 24 h, 100 nL compound (AID 1168); details: JC-1 mitochondrial fluorescence, higher = more signal, called active from +8 up or from −8 down; also: test concentration not given here
Note: the reply should be a number with no unit written.

The following compounds have reported results that may help.
{"compound": "CN1C(=O)C2C=CC(C(O)C3CC=CCC3)N(NC(=O)OC(C)(C)C)C2C1=O (centres undefined)", "z-score": -0.493}
{"compound": "C=C/C=C/[C@H]1C(=C)CN([C@@H](Cc2ccccc2)C(=O)OC)[C@@H]1[C@H](O)Cc1ccccc1", "z-score": -0.882}
{"compound": "CC(C)(C)OC(=O)CC[C@]1(C(=O)NCC(O)CO)COC(c2ccc(OCCCO)cc2)=N1 (some centres undefined)", "z-score": 0.176}

Please examine the following record next.
Consider the compound shown here: `COc1ccc([Si](C)(C)[C@H]2[C@H](CCO)O[C@@]3(C(=O)N(C)c4c(Br)cc(C)cc43)[C@@H]2C)cc1` What is its recorded z-score?
0.343

---

Items are presented alongside their recorded z-score.
assay: fission yeast growth modulation, primary screen, strain 972, OD600, 24 h, no modulator (AID 1090);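 also: basal condition with compound alone and no growth modifier present; test concentration not given here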; conditions: S. pombe 972 growth, higher = more signal, called active from +8 up or from −8 down
Answer using only a numeral; do not append any unit.

# annotated cases, reported z-score shown
{"compound string": "C[C@@H]1ON(c2cccc(C(=O)OC(C)(C)C)c2)[C@H](c2ccc(Br)cc2)[C@H]1C(=O)N1C(=O)OC[C@H]1Cc1ccccc1", "measurement label": "z-score", "value measured": 1.38}
{"compound string": "C[C@]1(C(=O)NC2CC2)c2ccccc2C(=O)N(Cc2cc(C(F)(F)F)cc(C(F)(F)F)c2)[C@H]1c1ccc(CO)cc1", "measurement label": "z-score", "value measured": -1.05}
{"compound string": "COc1ccc(C#Cc2ccc3c(c2)[C@]2(C(=O)N3)[C@H](c3ccccc3OCCO)N3[C@H](c4ccccc4)[C@H](c4ccccc4)OC(=O)[C@H]3[C@@H]2C(=O)O)cc1", "measurement label": "z-score", "value measured": 1.13}

Which value of z-score has been reported for `CC(C)(C)OC(=O)CC[C@@]1(C(=O)NCCN2CCOCC2)N=C(c2ccc(OCCCO)cc2)O[C@@H]1c1ccccc1N=[N+]=[N-]` in the records?
-0.182

---

Known composite z-score of a selection of compounds
system: Fibrinogen (Alexa647-labelled); experiment: fibrinogen binders on compound microarrays, profiling panel, artefact control for SMM control-protein annotation, biochemical, small-molecule microarray, 635/667 nm fluorescence (AID 1131); details: fibrinogen-A647 binding fluorescence, higher = more signal;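 also: z-score merges 667 nm fluorescence with per-spot signal-to-noise over triplicate slides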
Give the figure only, with no unit attached.

Worked examples follow.
{"compound": "CC(C)C(CO)N1C(=O)[C@@H]2[C@H]3C(=O)OCC=C[C@H]3OC23C=CCN(C(C)C)C(=O)[C@@H]13 (some centres not stated)", "composite z-score": -0.841}
{"compound": "O=C1C2C=CC(C(O)C(c3ccccc3)c3ccccc3)N(n3cnnc3)C2C(=O)N1Cc1ccccc1 (configuration not stated)", "composite z-score": 0.977}
{"compound": "O=C1NC(=O)C2C1C=CC(C(O)c1ccccc1)N2Nc1ccc(Cl)cc1Cl (configuration not stated)", "composite z-score": 0.985}
{"compound": "CC[C@@H]1C=C(C(=O)O)[C@H](c2ccco2)N1S(=O)(=O)c1ccc(C)cc1", "composite z-score": -1.13}
{"compound": "CCN(CC)c1ccc(N2CC=CC34O[C@@H]5/C=C\\CCCOC(=O)C5[C@H]3C(=O)N(CCO)[C@@H]4C2=O)cc1 (some centres not stated)", "composite z-score": -0.837}
{"compound": "C=CCOC(=O)[C@H]1[C@@H]2C(=O)O[C@@H](c3ccccc3)[C@@H](c3ccccc3)N2[C@@H](c2ccc(OCCOC(=O)[C@H]3C[C@H]4C(=O)N[C@@H](CC(C)C)C(=O)N4[C@H]3c3ccc(O)cc3)cc2)[C@]12C(=O)Nc1ccc(I)cc12", "composite z-score": 0.839}

Okay, next one:
// query composite z-score value for entry `COC(=O)c1c(CC[C@@H](CO)NC(=O)N[C@H](Cn2cc(Cc3ccccc3)nn2)C(C)C)oc(C(C)=O)c1C(=O)OC`
0.519

---

assay: PSAC antagonists in infected red cells, primary screen, cell-based, P. falciparum Indochina, OD700, 18 h (AID 1157); details: P. falciparum Indochina infected erythrocytes, osmotic lysis OD700, 18 h; higher = more signal, called active from +8 up or from −8 down
Parameter: z-score. Scope: all listed entries.
Write the value as a bare number.

{"compound": "COc1ccc(C(=O)O[C@H]2CC[C@]3(C)C4=C(CCC3C2(C)C)[C@]2(C)CC[C@H]([C@H](C)CCCC(C)C)[C@@]2(C)CC4)cc1 (some centres not stated)", "measurement label": "z-score", "value measured": -1.6}
{"compound": "COc1ccc(C(O)C2C=CC3C(=O)N(c4ccccc4)C(=O)C3N2Nc2ccccc2F)cc1OCc1ccccc1 (configuration not stated)", "measurement label": "z-score", "value measured": 1.17}
{"compound": "CN1C(=O)C2C=CC(C(O)c3ccc(I)cc3)N(N3CCCCC3)C2C1=O (configuration not stated)", "measurement label": "z-score", "value measured": 0.701}
{"compound": "O=C(NCc1ccccc1)[C@@H]1c2ccccc2C(=O)N(CC23CC4CC(CC(C4)C2)C3)[C@H]1c1ccc(CO)cc1", "measurement label": "z-score", "value measured": 0.134}
{"compound": "COC(=O)[C@@]1(Cc2ccc(OC)cc2)[C@H]2c3cc(C(=O)N(C)C)n(CCN4CNCC4=O)c3C[C@H]2CN1C(=O)c1ccccc1", "measurement label": "z-score", "value measured": -2.05}

What measured z-score goes with `CC(=O)NCCCC[C@@H]1NC(=O)[C@@H]2C[C@H](C(=O)NCCCCCCNC(=O)CS)[C@H](c3cccc(OCCO)c3)N2C1=O` ?
0.351

Could you share which z-score value was measured for `C=CCNC(=O)[C@H]1[C@@H]2C(=O)O[C@@H](c3ccccc3)[C@@H](c3ccccc3)N2[C@@H](c2ccc(OCCO)cc2)[C@]12C(=O)N(C(=O)OCCOC)c1ccccc12` ?
0.759
